// provenance: ChEMBL document CHEMBL1201862

Test system: PC-3
Assay: NCI tumour cell line growth inhibition, 48 h
Active and inactive are the calls of the source. Rule as the data show it: active = GI50 up to about 1.1 µM and inactive = higher. *1 amine or outer side, *2 acyl side, *3 side chain or, on linkers, in order; H or OH if unused. Where a SMILES comes first, the peptide text is derived from it. Bridges are numbered along the chain shown (N, C = ends). [ ]: non-standard residue; d: D form. The star is where a group is joined. ξ: configuration not given here. ξOrn(4,5-diOH) = O=C(C(CC(O)C(O)N[*:3])N[*:1])[*:2]; ξhTyr(βξ-OH,γξ-OH) = NC(C(=O)O)C(O)C(O)c1ccc(O)cc1; ξPro(3ξ-OH,4ξ-Me) = CC1CNC(C(=O)O)C1O; X55 = CCCCC/C=C/C/C=C\CCCCCCCC(=O)*; Hyp = O=C(O)[CH]1C[CH](O)CN1
observation type: GI50

[Q] Tell me reported GI50 for O=C(NC1=NC2C=CC([N+](=O)[O-])=CC2S1)C(=O)Nn1c(S)nc2ccccc2c1=O (stereo not drawn) , tested with PC-3.
[A] 40.6 µM (inactive)

[Q] Find GI50 (PC-3) for the entry CCn1c(-c2cc3ccccc3cc2OC(C)=O)n[nH]c1=S
[A] 15.8 µM (inactive)

[Q] Give recorded GI50 with PC-3 for the following compound: C=CCOCn1cc(C)c(=O)[nH]c1=O
[A] > 100 µM (inactive)

[Q] Form: Entry = CCCCC/C=C/C/C=C\CCCCCCCC(=O)NC1CC(O)C(O)NC(=O)C2C(O)C(C)CN2C(=O)C(C(C)O)NC(=O)C(C(O)C(O)c2ccc(O)cc2)NC(=O)C2CC(O)CN2C(=O)C(C(C)O)NC1=O (stereo not drawn) (X55-[ξOrn(4,5-diOH)]T[Hyp][ξhTyr(βξ-OH,γξ-OH)]T[ξPro(3ξ-OH,4ξ-Me)]; lactam 1-C; configuration not given here) | System = PC-3 | GI50 = ____
[A] > 100 µM (inactive)

[Q] For PC-3, provide GI50 of OC(c1cccnc1Cl)c1nc2ccccc2c2ccnc(Cl)c12 (stereo not drawn) please.
[A] 2.11 µM (inactive)

[Q] State its GI50 on PC-3: CS(=O)(=O)N1CC(CI)c2ccc(O)cc21 (stereo not drawn)
[A] 2.6 µM (inactive)

[Q] Lab note: need GI50 for Cc1nnc([C@@]2(C)CC[C@H]3[C@@H](CC=C4C[C@@H](O)CC[C@@]43C)[C@@H]2CC#N)o1 on PC-3, anyone have it?
[A] > 100 µM (inactive)

[Q] Fill in the recorded GI50 for this compound, with PC-3 as test system: c1ccc2c(c1)SCCCS2
[A] > 100 µM (inactive)

[Q] GET /values?readout=GI50&system=PC-3&item= CCN(CC)c1ccc2cc(-c3nc(O)c4ccccc4n3)c(=N)oc2c1
[A] > 100 µM (inactive)

[Q] Request - read-out GI50 | tested on PC-3 | compound COC1=C[C@]2(CCC(=O)O2)[C@@H]2Cc3ccccc3[C@H](O)[C@@H]2C1=O
[A] 31.2 µM (inactive)

[Q] What GI50 appears in the records for this compound with PC-3? Nc1cc(N2CCCC2)nc(=O)n1Cc1ccccc1
[A] > 100 µM (inactive)

[Q] Give PC-3 GI50 for CCOC(=O)c1nnsc1NC(=O)NN
[A] > 100 µM (inactive)

[Q] For the record CC(C)(Cc1ccccc1)Cc1cc(O)ccc1O , what value of GI50 is listed for PC-3?
[A] 22.2 µM (inactive)

[Q] Test system PC-3; read-out GI50; what value for CC(=O)OC(COc1ccc2c(c1)[n+]([O-])nc(N)[n+]2[O-])CN1CCCCC1 (stereo not drawn) ?
[A] 1.52 µM (inactive)

[Q] # get_value(readout= GI50, system= PC-3) for COC(=O)[C@H](Cc1ccccc1)NC(=O)c1ccc(CNC(=O)/C=C/c2csc(-c3ccccc3)n2)cc1
[A] 6.87 µM (inactive)

[Q] Any idea what GI50 came out for CCOC(=O)/C(C#N)=C(/NS(=O)(=O)c1cc(C)c(Cl)cc1[S-])[n+]1ccc(N(C)C)cc1 on PC-3?
[A] > 100 µM (inactive)

[Q] Query GI50 on PC-3 for COC(=O)c1ccccc1CC1Cc2c(C)ccc(C)c2C1=O (stereo not drawn)
[A] 34.8 µM (inactive)

[Q] Please provide the recorded GI50 for N#Cc1nnc2c3c(-c4ccc(Cl)cc4)c(C#N)c(O)nc3nn2c1N , tested on PC-3.
[A] 1.45 µM (inactive)
